Test: qHTS Assay for Enhancers of SMN2 Splice Variant Expression; also: nearly all actives have a fitted effect of over 55% in size
Settings: HEK293 SMN2-luciferase splicing reporter, luminescence, 30-36 h; series mostly up to 46.1 µM
Among all 210,000 compounds or so, about 5,900 (2.8%) were called active. Roughly 5% stayed inconclusive and do not appear here. Calls follow the shape of the dose curve; as a rule, active = well fitted activation curve with a large enough effect; inconclusive = small, poorly fitted or top-dose-only effect; inactive = no such curve, though single readings can be large or run the other way. For the sample, actives were picked, then their nearest neighbours and some compounds at random.
Outcome codes: 1.0 for active, 0.0 for inactive

| molecule | category |
| --- | --- |
| O=C(CSc1ccsc1[N+](=O)[O-])N1CCCCC1 | 0.0 |
| COc1ccc(CCNC(=O)CCCn2c(=O)c3ccccc3n(Cc3ccc(C)cc3)c2=O)cc1OC | 0.0 |
| Cc1ccc(N/N=C2\COC(C)(C)CC2=O)cc1 | 1.0 |
| Cc1ccc(OCCn2c(CNc3ccccc3C)nc3ccccc32)cc1 | 0.0 |
| CC(OC(=O)c1ccc2ccccc2n1)C(=O)c1ccccc1 (configuration not stated) | 0.0 |
| O=C(CSCc1cccs1)N1CCCC1 | 1.0 |
| CCOc1cccc(/C=C/c2ccc3ccccc3n2)c1OC(C)=O | 1.0 |
| NC(=O)COC(=O)/C=C/c1ccc2ccccc2n1 | 0.0 |
| Cc1nnc(SCC(=O)N2CCc3ccccc32)n1-c1ccccc1 | 0.0 |
| Cc1ccc(NN=C2C(=O)OC(C)(C)OC2=O)c(C)c1 | 0.0 |
| O=C(NNc1ncnc2c1cnn2-c1ccccc1)c1ccco1 | 0.0 |
| CCN(CC)C(=O)CSc1ncnc2c1cnn2-c1ccccc1 | 0.0 |

* * *

Assay: qHTS Assay for Enhancers of SMN2 Splice Variant Expression; also: nearly all actives have a fitted effect of over 55% in size
Conditions: HEK293 SMN2-luciferase splicing reporter, luminescence, 30-36 h; series mostly up to 46.1 µM
Text: NIH Chemical Genomics Center [NCGC] NIH Molecular Libraries Probe Production centers Network [MLPCN] MLPCN Grant: R03 MH084179-01 Assay Submitter (PI): Elliot Androphy NCGC Assay Overview: Spinal muscular atrophy (SMA) is caused by insufficient levels of the survival motor neuron protein SMN. The SMN locus on chromosome 5q13 contains two inverted copies of SMN called SMN1 and SMN2 which are 99% identical at the amino acid level. […]
Among all 210,000 compounds or so, about 5,900 (2.8%) were called active. Roughly 5% stayed inconclusive and do not appear here. Calls follow the shape of the dose curve; as a rule, active = well fitted activation curve with a large enough effect; inconclusive = small, poorly fitted or top-dose-only effect; inactive = no such curve, though single readings can be large or run the other way. This excerpt belongs to a sample that is enriched for actives.
Outcome codes: y (active), n (inactive)

| compound | category |
| --- | --- |
| Cc1ccc(S(=O)(=O)N2CCc3cc(C(=O)Nc4ccc(Cl)cc4C)ccc32)cc1 | n |
| O=C(NNC(=O)c1ccc(Cl)cc1Cl)c1cccs1 | y |
| Cc1cccn2c(=O)c3cc(C(=O)NC(C)c4ccccc4)c(=N)n(CCCO)c3nc12 (centres undefined) | n |
| CCN(CCCNC(=O)c1cc(Nc2ccc(OC)cc2)nc2ccccc12)c1cccc(C)c1 | n |
| CCC1CCCCN1S(=O)(=O)c1ccc(NC(=O)c2cc(=O)c3ccccc3o2)cc1 (centres undefined) | n |
| COc1ccc2c(c1)C(c1cccs1)=NNC(c1cccnc1)=N2 | n |
| Cc1c(NC(=O)c2cc(-c3ccc(Br)cc3)on2)c(=O)n(-c2ccccc2)n1C | n |
| Cc1csc(NC(=O)Nc2ccccc2[N+](=O)[O-])n1 | y |
| CCn1cc(C(=O)N(C)Cc2ccccc2)c(=O)c2cc(S(=O)(=O)N3CCCCCC3)ccc21 | n |
| O=C(OC1CCOC1=O)c1ccc(-c2nc3ccccc3s2)s1 (centres undefined) | y |
| Cc1nc2cc(NC(=O)NCc3ccccc3)ccc2o1 | n |
| Cc1nn(Cc2ccccc2)c(Cl)c1C(=O)OC1CCOC1=O (centres undefined) | n |
| CCN(C(=O)Cn1cc(S(=O)(=O)N2CCN(c3ccccc3F)CC2)c2ccccc2c1=O)c1ccc(C)c(C)c1 | n |
| Cc1ccc(C(=O)NNC(=O)c2cccs2)cc1 | n |
| COc1cc(/C=N/n2c(C)n[nH]c2=S)ccc1OCc1ccccc1 | y |
| CCOC(=O)c1cn(Cc2cccc(C)c2)nn1 | n |
| O=C(c1cccs1)N1CCC(c2nc3ccccc3s2)CC1 | n |
| COc1cccc(-c2nc(CS(=O)(=O)CC(=O)NCCc3ccc(OC)c(OC)c3)c(C)o2)c1 | n |
| CCOc1ccccc1N(C)C(=O)c1cc2c(s1)-c1ccccc1OC2 | n |
| COc1ccc(N(C)C(=O)CCS(=O)(=O)c2cccc3nsnc23)cc1 | n |
| CC(=O)c1nn(-c2cccc(Br)c2)cc1C(=O)c1cccc2ccccc12 | n |
| O=C(NCc1ccccc1Cl)c1csc2c1CCCCC2 | n |
| CC(C)CNC(=O)c1cc(-c2ccc(Br)cc2)on1 | y |
| CCOC(=O)c1cc2c(=O)n3ccccc3nc2n(CCCOC)c1=NC(=O)C(C)(C)Oc1ccc(Cl)cc1 | n |
| CCOc1ccc(Nc2nc(Cl)nc(N3CCN(c4ccc(OC)cc4)CC3)n2)cc1 | n |
| COc1ccc(CCN2C(=O)c3oc4cc(C)cc(C)c4c(=O)c3C2c2ccccc2F)cc1OC (centres undefined) | n |
| Cc1ccc(/C=N\n2c(-c3ccccc3)n[nH]c2=S)s1 | n |
| Cc1c(NC(=O)Nc2ccccc2)cccc1[N+](=O)[O-] | n |
| CN1c2ccccc2-c2nc3ccccc3n2C1c1ccco1 (centres undefined) | n |
| CCOc1ccc(CCNC(=O)c2cc3c(=O)n(C)c4ccccc4c3n2C)cc1 | n |
| S=c1[nH]nc(-c2cccnc2)n1/N=C/C(Cl)=C\c1ccccc1 | y |
| Cc1ccc(C)c(Cn2c(CCCNC(=O)C3CCCCC3)nc3ccccc32)c1 | n |
| Fc1ccc2c(c1)C(c1cccnc1)=NNC(c1cccs1)=N2 | n |
| COc1cc(CN(CC2CCCO2)C(=O)c2ccccc2F)cc(OC)c1OC (centres undefined) | n |
| CCOc1ccc2c(c1)C(c1ccc(C)cc1)=NNC(c1ccc(C)cc1)=N2 | y |
| CCOC(=O)c1ccc(NC(=O)c2csc3c2CCCCC3)cc1 | n |
| CCOC(=O)c1nn(-c2cccc(C)c2)cc1C(=O)c1ccccc1 | y |
| O=C(Nc1ccc(OC(F)(F)F)cc1)c1cc2c(=O)n3ccccc3nc2s1 | n |
| S=C(NCCc1ccccc1)N1CCCCC1 | y |
| Cc1ccc(NC(=O)Nc2ccc3oc(C)nc3c2)cc1 | y |
| Cc1ccccc1C(=O)Nc1sc2c(c1C(=O)N1CCC(C)CC1)CCCC2 | n |
| CN(Cc1ccccc1)C(=O)c1cn(C)c2ccc(S(=O)(=O)N3CCCCC3)cc2c1=O | n |
| Cc1cc(-c2n[nH]c(=S)n2/N=C/C(Br)=C/c2ccccc2)n[nH]1 | n |
| CCOC(=O)c1cc(NC(=O)c2ccc(F)cc2)c(=O)n2c1oc1ccccc12 | n |

* * *

Experiment: qHTS Assay for Enhancers of SMN2 Splice Variant Expression; also: nearly all actives have a fitted effect of over 55% in size
Settings: HEK293 SMN2-luciferase splicing reporter, luminescence, 30-36 h; series mostly up to 46.1 µM
Among all 210,000 compounds or so, about 5,900 (2.8%) were called active. About 5% were inconclusive and are not listed. The call rests on the fitted dose curve; in most records, active means well fitted activation curve with a large enough effect; inconclusive means small, poorly fitted or top-dose-only effect; inactive means no such curve, though single readings can be large or run the other way. Shown is part of a subset that was picked to be rich in actives.
Labels: TRUE for active, FALSE for inactive

| compound | category |
| --- | --- |
| Cc1ccc(-n2ncc3c(=O)n(Cc4cccc(C(F)(F)F)c4)cnc32)cc1C | FALSE |
| CNC(=O)CSc1nnnn1-c1ccc(C)cc1C | FALSE |
| O=C(O)c1ccc(COCC(F)(F)F)cc1 | FALSE |
| CC1=C(C(=O)Nc2ccccc2)C(c2ccc(C)cc2)n2nc(SCc3ccccc3C)nc2N1 (centres undefined) | FALSE |
| CCOC(=O)c1ccc(NC(=O)c2ncn(-c3ccccc3)n2)cc1 | FALSE |
| CCN(CC)S(=O)(=O)c1ccc2c(c1)N(CC(=O)NCc1ccccc1)C(=O)CS2 | FALSE |
| OCCNc1nc2ccccc2[nH]1 | FALSE |
| CCOC(=O)CSc1nnc(-c2cccc(Br)c2)o1 | FALSE |
| Cn1c(=O)c2c(nc(SCC(=O)Nc3ccc(F)cc3)n2Cc2ccc(Cl)cc2)n(C)c1=O | FALSE |
| O=C(CSc1oc(-c2ccccc2)nc1S(=O)(=O)c1ccc(Br)cc1)NC1CCCCC1 | FALSE |
| O=C(CSc1nnc(CNC(=O)c2ccccc2)n1-c1ccc(F)cc1)Nc1ccccc1F | FALSE |
| Cc1cccc(CSc2ccc(-c3cccs3)nn2)c1 | TRUE |
| C/C(=N\NS(=O)(=O)c1ccc(Br)cc1)c1cccs1 | FALSE |
| CCOc1ccc(N(CC)C(=O)c2cc3c(=O)oc4ccccc4c3s2)cc1 | FALSE |
| CCC(C)[C@@H](N)C(=O)O (some centres undefined) | FALSE |
| Cc1ccc(-c2nc3ccccc3[nH]2)cc1N | TRUE |
| CCOC(=O)c1sc2nc(SC)nc(-c3ccccc3)c2c1N | FALSE |
| Cc1ccc2nc(-c3ccccc3)cc(C(=O)O)c2c1 | FALSE |
| COc1cc(OC)cc(-c2nc3nc(C)c(CCC(=O)Nc4ccc(C)cc4)c(C)n3n2)c1 | FALSE |
| CCCCCc1ccc(-c2ccc(C(=O)O)cc2)nc1 | TRUE |
| COc1cc(OC)c(C2C=C(C(=O)O)Nc3ncnn32)cc1OC (centres undefined) | FALSE |
| Cc1ccc(-c2cc(C(=O)NCc3cn(C)nc3C)c3cc(Br)ccc3n2)cc1 | FALSE |
| N#Cc1ccc(-c2cccs2)nc1SCc1ccc(Br)cc1 | FALSE |
| CS(=O)(=O)c1sc2nc(-c3ccccc3)cc(-c3ccccc3)c2c1N | FALSE |

Value source: PubChem BioAssay AID1458
